Values from the supplement of paper PMC10567573

B1: PDZK1 (parent)
chain: QKEQGLSDNILSPVMNGGVQTWTQ

- Variants of: B1
- experiment: protein stability index of a GFP-peptide fusion (GPS, HEK-293T) (PSI 1-6); higher = more stable;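 further: lentivirally expressed fusions sorted by FACS into six bins by GFP to DsRed ratio, PSI derived from sequencing read proportions per bin multiplied by bin number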
- recorded.conditions: c terminus: a fixed tail appended
observed.property: protein stability index
Lab note: jot down the number only; don't add units.

V14T; 2.93
D8E; 3.04
T23Y; 3.05
L6Q; 3.92
M15D; 3.02
G18N; 2.67
Q4L; 2.14
G18E; 2.56

Turning now to a further record.
[ask] Supply protein stability index value. Item: G18R
[reply] 1.84
